# System: brine shrimp (Artemia salina Leach)
# procedure_details: Brine shrimp toxicity bioassay
# Format: in vivo
# measurement_setup: 24 hours
endpoint_label: toxicity to brine shrimp (in words)

Previously resolved entries follow.
compound	toxicity to brine shrimp (in words)
Oc1ccccc1CCCCCCCCCCc1ccccc1O [1,10-bis(2-hydroxyphenyl)decane]	moderately toxic
Oc1ccc(CCCCCCCCCCc2ccc(O)cc2O)c(O)c1 [1,10-bis(2,4-dihydroxyphenyl)decane]	relatively low toxicity
CCCCCCCCCCCCCc1cc(O)cc(O)c1 [grevillol, 5-tridecylresorcinol]	moderately toxic
Cc1c(O)cc(CCCCCCCCCCCCCCc2cc(O)c(C)c(O)c2)cc1O [striatol]	relatively low toxicity

--- query ---
toxicity to brine shrimp (in words) recorded for this compound, Oc1cc(O)cc(CCCCCCCCCCCCCCc2cc(O)cc(O)c2)c1 [bisnorstriatol, 1,14-bis(3,5-dihydroxyphenyl)tetradecane] , is relatively low toxicity

====

# target_system: human erythrocyte plasma membrane Ca^2+ -ATPase (Homo sapiens)
# Construct: Calmodulin-depleted erythrocyte membranes were prepared by continuous filtration through a hollow fibre; tissue New South Wales Red Cross Transfusion Service, Sydney; host or cells: human packed red blood cells (calmodulin-depleted erythrocyte membranes)
# procedure_details: Ca^2+ -ATPase assay (erythrocyte membranes; Table 1)
# Format: biochemical
# measurement_setup: at 100 μM; read-out: INHIBITION OF Ca^2+ -ATPase PERCENT (%)
Recorded inhibition at 100 µM split into classes A (below 50%), B (50% to below 80%), C (80% or more)

molecule	assigned_class
CCCCCCCCCCc1ccccc1O	C

With those in mind, consider the next molecule.
For "Cc1c(O)cc(CCCCCCCCCCCCCCc2cc(O)c(C)c(O)c2)cc1O" , which inhibition at 100 µM bin applies?
C

====

Please go through the items and note down their pIC50.
# target_system: human erythrocyte plasma membrane Ca^2+ -ATPase (Homo sapiens)
# Construct: Calmodulin-depleted erythrocyte membranes were prepared by continuous filtration through a hollow fibre; tissue New South Wales Red Cross Transfusion Service, Sydney; host or cells: human packed red blood cells (calmodulin-depleted erythrocyte membranes)
# procedure_details: Ca^2+ -ATPase assay (microplate method), absence (-CaM) and presence (+CaM) of calmodulin (Table 1A)
# Format: biochemical
# measurement_setup: absence of calmodulin; read-out: IC50 (-CaM)
Give bare numbers, as −log10 of the molar value.

Worked cases, answers included:
compound	pIC50
C=C(C)C(CC=C(C)C)Cc1c(O)cc(O)c2c1OC(c1c(O)cccc1O)CC2=O (centres unmarked)	4.70
Oc1ccccc1CCCCCCCCCCc1ccccc1O [1,10-bis(2-hydroxyphenyl)decane]	5.08
Oc1ccccc1CCCCCCCCCCCCc1ccccc1O [1,12-bis(2-hydroxyphenyl)dodecane]	4.90
Cc1cccc(CCCCCCCCCCc2cccc(C)c2O)c1O [1,10-bis(2-hydroxy-3-methylphenyl)decane]	4.30

Here is another compound to look at.
Value of measured pIC50 for the entry "Cc1c(O)ccc(CCCCCCCCCCc2ccc(O)c(C)c2O)c1O" : 4.00

====

Consider the following compounds; for each one, report its IC50.
# target_system: human erythrocyte plasma membrane Ca^2+ -ATPase (Homo sapiens, UniProt P23634)
# Construct: Calmodulin-depleted erythrocyte membranes were prepared by continuous filtration through a hollow fibre; tissue New South Wales Red Cross Transfusion Service, Sydney; host or cells: human packed red blood cells (calmodulin-depleted erythrocyte membranes)
# Sequence (P23634 1-1205 isoform P23634-6): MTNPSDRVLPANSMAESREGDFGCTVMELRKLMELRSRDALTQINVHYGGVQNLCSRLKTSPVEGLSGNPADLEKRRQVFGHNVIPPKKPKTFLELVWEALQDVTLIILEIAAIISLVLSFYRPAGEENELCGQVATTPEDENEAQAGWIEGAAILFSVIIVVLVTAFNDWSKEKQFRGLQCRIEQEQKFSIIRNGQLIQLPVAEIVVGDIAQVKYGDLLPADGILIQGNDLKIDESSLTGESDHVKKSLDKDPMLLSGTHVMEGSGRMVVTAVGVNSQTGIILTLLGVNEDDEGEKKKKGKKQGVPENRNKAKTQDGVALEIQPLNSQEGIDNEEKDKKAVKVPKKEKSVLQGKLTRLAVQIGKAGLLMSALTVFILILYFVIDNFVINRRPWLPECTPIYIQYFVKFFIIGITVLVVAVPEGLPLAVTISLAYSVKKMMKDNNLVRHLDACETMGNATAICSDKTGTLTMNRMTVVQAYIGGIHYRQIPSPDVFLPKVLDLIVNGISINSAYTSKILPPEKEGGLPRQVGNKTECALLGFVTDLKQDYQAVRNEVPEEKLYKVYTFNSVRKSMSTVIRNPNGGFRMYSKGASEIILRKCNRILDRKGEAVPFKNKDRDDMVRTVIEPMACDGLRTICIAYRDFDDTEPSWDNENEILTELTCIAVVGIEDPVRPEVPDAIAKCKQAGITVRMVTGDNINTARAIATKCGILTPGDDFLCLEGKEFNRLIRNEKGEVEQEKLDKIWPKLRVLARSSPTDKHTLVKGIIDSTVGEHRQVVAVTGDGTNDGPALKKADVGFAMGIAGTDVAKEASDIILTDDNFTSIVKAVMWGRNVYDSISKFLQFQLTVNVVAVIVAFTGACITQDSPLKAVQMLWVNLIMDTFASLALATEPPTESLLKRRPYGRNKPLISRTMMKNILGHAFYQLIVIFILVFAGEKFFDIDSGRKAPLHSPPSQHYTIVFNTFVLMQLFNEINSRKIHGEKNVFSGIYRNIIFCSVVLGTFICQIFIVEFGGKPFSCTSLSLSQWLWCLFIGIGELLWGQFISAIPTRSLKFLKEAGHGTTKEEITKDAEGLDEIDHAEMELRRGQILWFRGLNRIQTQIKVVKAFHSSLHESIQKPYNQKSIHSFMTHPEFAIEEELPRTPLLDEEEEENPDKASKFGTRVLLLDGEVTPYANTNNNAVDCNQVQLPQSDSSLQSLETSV
# Sequence (P35613 140-385 partner limits assumed): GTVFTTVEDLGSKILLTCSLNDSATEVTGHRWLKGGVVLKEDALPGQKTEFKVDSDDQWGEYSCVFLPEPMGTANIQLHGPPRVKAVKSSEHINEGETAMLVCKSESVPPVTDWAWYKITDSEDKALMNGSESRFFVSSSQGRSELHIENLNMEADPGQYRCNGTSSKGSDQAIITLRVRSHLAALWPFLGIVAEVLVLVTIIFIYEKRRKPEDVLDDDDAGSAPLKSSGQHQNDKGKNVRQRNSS
# procedure_details: Ca^2+ -ATPase assay (microplate method), absence (-CaM) and presence (+CaM) of calmodulin (Table 1A)
# Type: biochemical
# measurement_setup: presence of calmodulin (0.3 μM); read-out: IC50 (+CaM)
Answers are plain numbers, in µM.

Known IC50 results, listed for orientation:
compound	endpoint_label	u	endpoint_value
Cc1cc(CCCCCCCCCCc2ccc(O)c(C)c2)ccc1O [1,10-bis(4-hydroxy-3-methylphenyl)decane]	IC50	µM	94
Cc1c(O)ccc(CCCCCCCCCCc2ccc(O)c(C)c2O)c1O	IC50	µM	100
Cc1cccc(CCCCCCCCCCc2cccc(C)c2O)c1O [1,10-bis(2-hydroxy-3-methylphenyl)decane]	IC50	µM	55

Below: the item to evaluate.
Entry CCCCCCCCCC(c1ccccc1O)c1ccccc1O [1,1-bis(2-hydroxyphenyl)decane] : IC50 on human erythrocyte plasma membrane Ca^2+ -ATPase (Homo sapiens, UniProt P23634) = 68
